Target: Macrophage colony-stimulating factor 1 receptor (Homo sapiens, UniProt P07333)
Sequence (P07333 whole entry, the tested form may be a part): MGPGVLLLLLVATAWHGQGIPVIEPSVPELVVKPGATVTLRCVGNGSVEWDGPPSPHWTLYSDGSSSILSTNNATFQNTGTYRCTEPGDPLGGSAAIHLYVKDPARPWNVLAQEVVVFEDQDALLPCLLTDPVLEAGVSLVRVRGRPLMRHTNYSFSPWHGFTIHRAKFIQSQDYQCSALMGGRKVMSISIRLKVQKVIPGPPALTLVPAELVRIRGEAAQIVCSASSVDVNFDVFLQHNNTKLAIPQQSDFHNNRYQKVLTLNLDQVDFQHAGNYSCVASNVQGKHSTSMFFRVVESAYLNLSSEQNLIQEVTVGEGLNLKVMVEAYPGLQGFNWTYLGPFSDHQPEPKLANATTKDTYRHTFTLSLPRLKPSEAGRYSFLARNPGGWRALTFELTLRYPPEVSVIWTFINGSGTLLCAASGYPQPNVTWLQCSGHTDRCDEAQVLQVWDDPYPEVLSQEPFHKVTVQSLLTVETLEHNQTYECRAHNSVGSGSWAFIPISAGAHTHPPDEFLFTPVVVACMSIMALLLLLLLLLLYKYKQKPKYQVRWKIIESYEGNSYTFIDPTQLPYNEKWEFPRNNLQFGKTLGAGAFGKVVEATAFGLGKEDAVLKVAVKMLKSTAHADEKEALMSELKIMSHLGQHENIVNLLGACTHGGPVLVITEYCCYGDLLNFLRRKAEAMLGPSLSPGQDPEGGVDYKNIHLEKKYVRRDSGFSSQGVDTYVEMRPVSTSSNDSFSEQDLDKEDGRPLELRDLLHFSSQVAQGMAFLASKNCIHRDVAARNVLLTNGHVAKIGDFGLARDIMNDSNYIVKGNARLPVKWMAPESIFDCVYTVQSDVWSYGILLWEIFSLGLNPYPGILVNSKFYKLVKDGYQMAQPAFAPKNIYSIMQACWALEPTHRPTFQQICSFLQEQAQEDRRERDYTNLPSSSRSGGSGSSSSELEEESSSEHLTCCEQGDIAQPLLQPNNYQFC
Test: Inhibition of recombinant His-tagged human CSF1R cytoplasmic domain expressed in baculovirus expression system measured after 1 hr by FRET based Z'Lyte assay

[
  {
    "test_smiles": "Cc1ccc(C(=O)N2CCC(Oc3cc(NC(=O)c4ccc(CN5CCN(C)CC5)c(C(F)(F)F)c4)ccc3C)CC2)cn1",
    "IC50 / nM": 227
  }
]

---

Experiment: AUC (0 to infinity) in Sprague-Dawley rat at 1 mg/kg, iv
Format: ADME, organism-based
Design: dose 1 mg/kg, route intravenous, time infinity
Details: in vivo

[
  {
    "test_smiles": "Cc1ccc(C(=O)N2CCC(Oc3cc(NC(=O)c4ccc(CN5CCN(C)CC5)c(C(F)(F)F)c4)ccc3C)CC2)cn1",
    "AUC(0-inf) (ng·h/mL)": 558
  }
]

---

Assay: Cmax in Sprague-Dawley rat at 10 mg/kg, po
Type: ADME, organism-based
Parameters: dose 10 mg/kg, route oral
Settings: in vivo
value_type: Cmax (ng/mL)

[
  {
    "test_smiles": "Cc1ccc(C(=O)N2CCC(Oc3cc(NC(=O)c4ccc(CN5CCN(C)CC5)c(C(F)(F)F)c4)ccc3C)CC2)cn1",
    "units_symbol": "ng/mL",
    "recorded_measurement": 223
  }
]

---

Target: Tyrosine-protein kinase Lck (Homo sapiens, UniProt P06239)
Sequence (P06239 whole entry, the tested form may be a part): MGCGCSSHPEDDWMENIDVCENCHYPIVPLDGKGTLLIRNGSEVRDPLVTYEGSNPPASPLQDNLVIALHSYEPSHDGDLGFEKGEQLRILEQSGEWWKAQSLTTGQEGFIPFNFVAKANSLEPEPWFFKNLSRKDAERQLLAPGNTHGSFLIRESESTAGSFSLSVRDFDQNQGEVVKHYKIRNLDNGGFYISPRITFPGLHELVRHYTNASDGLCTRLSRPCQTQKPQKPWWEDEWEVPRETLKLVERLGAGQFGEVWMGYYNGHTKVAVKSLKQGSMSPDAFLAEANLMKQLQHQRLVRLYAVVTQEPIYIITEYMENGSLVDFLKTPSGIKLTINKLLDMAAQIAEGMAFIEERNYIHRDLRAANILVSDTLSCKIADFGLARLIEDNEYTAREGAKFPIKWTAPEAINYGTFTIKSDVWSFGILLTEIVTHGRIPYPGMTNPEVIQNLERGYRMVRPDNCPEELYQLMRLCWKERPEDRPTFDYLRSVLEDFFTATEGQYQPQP
Assay: Inhibition of recombinant C-terminal His-tagged human LCK cytoplasmic domain expressed in baculovirus expression system measured after 1 hr by FRET based Z'Lyte assay
pIC50: −log10 of the molar value.

[
  {
    "test_smiles": "Cc1ccc(C(=O)N2CCC(Oc3cc(NC(=O)c4ccc(CN5CCN(C)CC5)c(C(F)(F)F)c4)ccc3C)CC2)cn1",
    "pIC50": 7.92
  }
]

---

Experiment: Half life in Sprague-Dawley rat at 10 mg/kg, po
Type: ADME, organism-based
Settings: in vivo
value_type: half-life (min)

[
  {
    "test_smiles": "Cc1ccc(C(=O)N2CCC(Oc3cc(NC(=O)c4ccc(CN5CCN(C)CC5)c(C(F)(F)F)c4)ccc3C)CC2)cn1",
    "value_type": "half-life",
    "recorded_measurement": 170
  }
]

---

Biological target: Discoidin domain-containing receptor 2 (Homo sapiens, UniProt Q16832)
Sequence (Q16832 whole entry): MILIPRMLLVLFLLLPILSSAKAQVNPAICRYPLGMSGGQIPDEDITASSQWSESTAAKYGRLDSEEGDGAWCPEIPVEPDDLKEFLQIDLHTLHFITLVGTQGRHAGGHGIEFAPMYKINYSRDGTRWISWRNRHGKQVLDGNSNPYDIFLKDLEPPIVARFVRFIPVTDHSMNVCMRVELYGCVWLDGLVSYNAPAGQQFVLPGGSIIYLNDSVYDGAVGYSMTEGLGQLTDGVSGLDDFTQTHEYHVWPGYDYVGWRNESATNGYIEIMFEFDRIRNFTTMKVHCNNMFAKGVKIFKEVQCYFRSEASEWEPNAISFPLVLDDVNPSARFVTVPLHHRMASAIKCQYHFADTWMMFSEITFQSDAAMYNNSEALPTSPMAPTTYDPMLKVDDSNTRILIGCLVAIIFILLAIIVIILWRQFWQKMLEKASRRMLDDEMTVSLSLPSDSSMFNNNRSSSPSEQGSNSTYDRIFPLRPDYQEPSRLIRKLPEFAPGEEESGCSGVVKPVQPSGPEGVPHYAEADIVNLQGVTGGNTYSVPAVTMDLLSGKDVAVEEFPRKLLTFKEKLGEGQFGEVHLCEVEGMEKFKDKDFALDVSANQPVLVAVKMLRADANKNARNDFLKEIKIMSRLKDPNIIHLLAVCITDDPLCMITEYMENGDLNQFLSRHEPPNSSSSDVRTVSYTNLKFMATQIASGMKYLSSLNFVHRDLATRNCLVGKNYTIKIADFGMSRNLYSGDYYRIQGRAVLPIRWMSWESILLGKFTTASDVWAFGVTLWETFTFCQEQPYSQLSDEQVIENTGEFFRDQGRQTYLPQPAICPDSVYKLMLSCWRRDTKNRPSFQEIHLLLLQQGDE
Assay: Inhibition of recombinant His-tagged human DDR2 cytoplasmic domain expressed in baculovirus expression system measured after 1 hr by FRET based Z'Lyte assay

[
  {
    "test_smiles": "Cc1ccc(C(=O)N2CCC(Oc3cc(NC(=O)c4ccc(CN5CCN(C)CC5)c(C(F)(F)F)c4)ccc3C)CC2)cn1",
    "measured_target": "Discoidin domain-containing receptor 2 (Homo sapiens, UniProt Q16832)",
    "units_symbol": "nM",
    "IC50": 325
  }
]
